B1: Hairpin Ribozyme (parent)
chain: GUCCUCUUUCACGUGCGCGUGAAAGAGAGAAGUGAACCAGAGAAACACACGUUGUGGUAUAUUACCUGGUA

Variants of: B1
ASSAY_EXPLANATION: self-cleavage, relative activity (ratio to wild type); higher = more cleavage; co-transcriptional
self-cleavage for assorted variants
Number only, no unit.

MUTATION_STRING | self-cleavage
G13A A36C | 0.533
G34C U52A | 1.66
A35C A45G | 0.083
G19C G21A | 0.657
G54U G57U | 0.282
U5G G34C | 0.886
G19U C50U | 0.33
A35G C50G | 0.19

# get_value(readout='self-cleavage', item= C3G G54C )
0.126

# get_value(readout='self-cleavage', item= G29A G32C )
0.106

# get_value(readout='self-cleavage', item= A41G U55A )
0.228

# get_value(readout='self-cleavage', item= G15C U20G )
0.828

# get_value(readout='self-cleavage', item= C16G C48G )
0.19

Source of measurements: the RNAGym collection of RNA variant scans (doi:10.7554/elife.80360)
